- target.of.assay: S. pyogenes SKKanGAS, kanamycin survival, BacTiterGlo, 6 h
- experiment.description: S. pyogenes SKKanGAS kanamycin growth inhibitors – SKKanGAS strain, luminescence, dose confirmation, streptokinase promoter inhibitor project, dose response (AID 1902);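 further: lower survival reflects blocked streptokinase promoter driving kanamycin resistance gene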
Active and inactive are the calls of the source.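 How the source made its calls: active means EC50 no more than a set limit of log units above the highest dose; inactive means the rest.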
Classes used: Y for active, N for inactive

• Oc1ccccc1C1=NN(c2ccccc2)C(c2ccccc2)C1 (stereo unspecified) = Y
• CCN(CC)c1ccc(-c2nn3c(-c4ccccc4OC)nnc3s2)cc1 = Y
• COc1ccc(NC(=O)C(=O)NNC(=O)C(C)Oc2ccc(Cl)cc2Cl)cc1 (stereo unspecified) = Y
• O=C(O)c1ccc(N2C(=O)CC(SC(=NCc3ccc4c(c3)OCO4)Nc3ccc(F)cc3)C2=O)cc1 (stereo unspecified) = Y
• N#Cc1c(-c2ccccc2)nc(SCC(=O)N2c3ccccc3Sc3ccccc32)[nH]c1=O = Y
• Cc1c(Cc2ccccc2)c(=O)oc2cc(OCc3ccc(C(=O)O)cc3)ccc12 = Y
• CCc1ccc(S(=O)(=O)/N=C2\C=C(Nc3cccc(C(=O)O)c3)C(=O)c3ccccc32)cc1 = Y
• COCCn1c(N)c(C(=O)NS(=O)(=O)c2ccc(C)cc2)c(=O)[nH]c1=O = N
• COc1cc2ccccc2cc1C(=O)Nc1ccc(NC(=O)c2cccs2)cc1 = Y
• Cc1c(C(=O)Nc2ccc(Oc3ccccc3)cc2)sc2nc3n(c(=O)c12)CCC3 = Y
• CC(Oc1ccc(Cl)cc1Cl)C(=O)NC1=NN(c2ccccc2)C(=O)C1 (stereo unspecified) = Y
• COc1cc(Br)cc(/C=N/NC(=O)Cc2ccc(C(F)(F)F)cc2[N+](=O)[O-])c1O = Y
• Oc1c(N=NC(=S)Nc2ccccc2F)c2ccccc2n1Cc1ccc(F)cc1 = Y
• CN1C(=O)NC(c2ccccc2)(C(F)(F)F)S/C1=C(/C#N)c1nnc(N2CCOCC2)n1-c1ccccc1 (stereo unspecified) = N
• Cc1cccc(-c2nnc(NC(=O)c3ccc(Cl)cc3)o2)c1 = Y
• O=c1cc(-c2ccc(O)c(-c3c(O)cc(O)c4c(=O)cc(-c5ccc(O)cc5)oc34)c2)oc2cc(O)cc(O)c12 = Y
• O=C(NC(=S)Nc1ccc(Cl)cn1)C(c1ccccc1)c1ccccc1 = Y
• COc1cc(/C=C/C(=O)OC2CC3CCC2(C)C3(C)C)ccc1O (stereo unspecified) = Y
• O=[N+]([O-])c1ccc(O)c(N=Cc2sc3ccccc3c2O)c1 = Y
• Cc1cc2oc(=O)cc(CN(C)Cc3ccccc3Cl)c2cc1C = Y
• COc1ccc(OCCCC(=O)Nc2nc(-c3ccccn3)cs2)cc1 = Y
